# Test system: OVCAR-4 ovarian
# Procedure details: NCI-60 one-dose screen, 48 h
# Condition set: 10 µM unless noted
The panel holds about 83,000 compounds, 20% with a hit somewhere; the sample as a whole holds those more often. The source made the active and inactive calls. How the source made its calls: active means growth percent below 10; inactive means the rest.
Write down the outcome that applies. Available outcomes: label 1 for active, label 0 for inactive

Reference set (8 entries):
Lookup: GET /call?item= NC(=O)CN1C(=O)c2ccccc2C1=O returns the recorded outcome of this test.
Found: label 0

Lookup: Then COc1cc2c(cc1OCCCOc1cc3c(cc1OC)C(=O)N1CC(F)(F)C[C@H]1C=N3)N=C[C@@H]1CC(F)(F)CN1C2=O ?
Found: label 0

Lookup: Now consider C/C(=N\NC(=O)c1ccncc1)c1ccc(N)cc1 and answer again.
Found: label 0

Lookup: Note, next up: CCO/C=N/S(=O)(=O)c1cc2c(cc1Cl)NC=NS2(=O)=O
Found: label 0

Lookup: How about this compound: CC(=O)[C@@H]1CC[C@]2(C(=O)O)CC[C@]3(C)[C@H](CC[C@@H]4[C@@]5(C)Cc6c([nH]c7ccccc67)C(C)(C)[C@@H]5CC[C@]43C)[C@@H]12
Found: label 0

Lookup: And for C=C1C(=O)O[C@H]2[C@H]1CC/C(COC(=O)Nc1nc3ccccc3[nH]1)=C\CC[C@@]1(C)O[C@@H]21 ?
Found: label 0

Lookup: Moving on to COc1ccc(Nc2cc(NC(=O)CNc3cc(OC)c(Cl)c(OC)c3Cl)ncn2)cc1
Found: label 0

Lookup: And what about the compound C#C[C@@]1(O)[C@@H](CO)O[C@@H](n2cc(F)c3c(N)ncnc32)[C@@H]1O ?
Found: label 1

New cases:
Lookup: Identify the outcome logged in this assay for the compound shown: C[C@]12CC[C@@H]3c4ccc(O)cc4CC[C@H]3[C@@H]1C[C@H](O)C2
Found: label 0

Lookup: Then what about the compound O=C(O)CCNC1CCCCC1 ?
Found: label 0

Lookup: # iterate: CCc1ccc(OCc2ccccc2C(=O)Nc2ccc3nc(C)cc(N)c3c2)cc1
Found: label 1

----------
# Test system: EKVX NSCLC
# Procedure details: NCI-60 one-dose screen, 48 h (100 = growth as untreated, 0 = no growth, -100 = all killed)
# Condition set: 10 µM unless noted
This is part of a sample that, as a whole, favours compounds with a hit. Of some 83,000 tested, about 20% had one in any assay.
Parameter class (string): assigned from measured growth. Ranges: interval 1 (below 60%), interval 2 (60% to below 80%), interval 3 (80% or more)

Lookup: Which class does C=C(C)[C@@H]1CC[C@]2(C(=O)NCCCO)CC[C@]3(C)[C@H](CC[C@@H]4[C@@]5(C)CCCNC(C)(C)[C@@H]5CC[C@]43C)[C@@H]12 fall in?
Found: interval 2

Others:
Lookup: Sort into band: CC[C@]12C=CCN3CC[C@@]4(c5cc(NC(=O)CCC(=O)O[C@H]6CC[C@H]7[C@@H]8CC[C@H]9CC(=O)CC[C@]9(C)[C@H]8CC[C@]67C)c(OC)cc5N(C)[C@H]4[C@@](O)(C(=O)OC)[C@@H]1OC(C)=O)[C@@H]32
Found: interval 2

Lookup: # iterate: NC(=O)C(O)(c1ccccc1)c1ccccc1
Found: interval 3

Lookup: How about this compound: CCOC(=O)c1sc(/N=C2\NC(=O)/C(=C/c3ccc(N4CCN(C)CC4)cc3)S2)nc1C
Found: interval 3

Lookup: Another: CN1C(=O)c2cc(Cl)nc3c(NC(=O)c4cccc(Cl)c4)c(Cl)c(NC(=O)c4cccc(Cl)c4)c1c23
Found: interval 1
